# system_tested: BRAF (Homo sapiens, UniProt P15056)
# Construct: purchased Invitrogen
# Sequence (P15056 whole entry): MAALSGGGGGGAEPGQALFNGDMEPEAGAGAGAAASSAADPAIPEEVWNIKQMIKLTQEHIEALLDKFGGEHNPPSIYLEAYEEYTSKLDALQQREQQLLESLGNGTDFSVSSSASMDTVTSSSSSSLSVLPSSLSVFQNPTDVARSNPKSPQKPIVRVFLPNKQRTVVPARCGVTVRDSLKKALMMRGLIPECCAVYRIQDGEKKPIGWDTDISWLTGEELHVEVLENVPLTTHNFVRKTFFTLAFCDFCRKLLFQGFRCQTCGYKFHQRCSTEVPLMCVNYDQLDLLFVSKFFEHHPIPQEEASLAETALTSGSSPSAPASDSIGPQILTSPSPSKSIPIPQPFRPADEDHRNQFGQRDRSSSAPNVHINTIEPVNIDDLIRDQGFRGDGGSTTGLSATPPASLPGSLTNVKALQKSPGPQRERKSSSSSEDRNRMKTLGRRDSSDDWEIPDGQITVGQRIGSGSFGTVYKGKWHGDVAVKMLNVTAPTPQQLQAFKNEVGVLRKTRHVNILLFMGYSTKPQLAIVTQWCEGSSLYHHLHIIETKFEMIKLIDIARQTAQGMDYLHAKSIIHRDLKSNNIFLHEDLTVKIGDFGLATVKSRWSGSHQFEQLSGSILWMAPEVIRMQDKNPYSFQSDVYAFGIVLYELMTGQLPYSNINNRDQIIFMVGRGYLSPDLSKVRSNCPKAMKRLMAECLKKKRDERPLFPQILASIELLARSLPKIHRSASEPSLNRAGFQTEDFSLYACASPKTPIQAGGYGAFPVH
# experimental_details: Z′-LYTE kinase assay, BRAF (Invitrogen)
# Format: biochemical
# run_parameters: Z′-LYTE method
observable: inhibition at 1 µM

The value of inhibition at 1 µM measured for the molecule CCCS(=O)(=O)Nc1cc(F)c(F)c(C(=O)c2ccc3ncc(N4CCOCC4)nc3c2)c1F [Compound C09] turned out to be > 89%

The value of inhibition at 1 µM measured for the molecule CCCS(=O)(=O)Nc1cc(F)c(F)c(C(=O)c2ccc3nccnc3c2)c1 [Compound C07] turned out to be < 70%

The value of inhibition at 1 µM measured for the molecule CCCS(=O)(=O)Nc1cc(F)c(F)c(C(=O)c2ccc3ncc(Cl)nc3c2)c1F [Compound C11] turned out to be 70 to 89%

The value of inhibition at 1 µM measured for the molecule CCCS(=O)(=O)Nc1cc(F)c(F)c(C(=O)c2ccc3ncc(-c4ccc(Cl)cc4)nc3c2)c1F [Compound C12] turned out to be 70 to 89%

The value of inhibition at 1 µM measured for the molecule CCCS(=O)(=O)Nc1cc(F)c(SC)c(C(=O)c2ccc3nccnc3c2)c1F [Compound C08] turned out to be < 70%

The value of inhibition at 1 µM measured for the molecule CCCS(=O)(=O)Nc1cc(F)c(F)c(C(=O)c2ccc3ncc(N(C)CCN(C)C)nc3c2)c1F [Compound C13] turned out to be > 89%

The value of inhibition at 1 µM measured for the molecule CCCS(=O)(=O)Nc1cc(F)c(F)c(C(=O)c2ccc3nccnc3c2)c1Cl [Compound C14] turned out to be > 89%

The value of inhibition at 1 µM measured for the molecule CCCS(=O)(=O)Nc1ccc(F)c(C(=O)c2ccc3nccnc3c2)c1Cl [Compound C06] turned out to be 70 to 89%

The value of inhibition at 1 µM measured for the molecule CCCS(=O)(=O)Nc1ccc(F)c(C(=O)c2ccc3ncc(OC)nc3c2)c1F [Compound C03] turned out to be 70 to 89%

The value of inhibition at 1 µM measured for the molecule CCCS(=O)(=O)Nc1ccc(F)c(C(=O)c2ccc3ncc(C#N)nc3c2)c1F [Compound C05] turned out to be 70 to 89%
